The reported measurements were obtained from PubChem BioAssay (NCI).

Tested on: OVCAR-8 ovarian
method.description: NCI tumour cell line growth inhibition, 48 h
Please respond with reported TGI for every item in the list.
Numbers only, in µM.

Completed entries (count: 2):
| molecule | TGI [µM] |
| --- | --- |
| COC(=O)C(C(=O)OC)C1CC(=O)c2c(Br)sc(Br)c21 (configuration not stated) | 37.8 |
| Cc1cc(Cl)ccc1NC(=O)NC(C)(C)COC(=O)Nc1cccc(Cl)c1 | 64.8 |

Data point: O=C(Nc1ccc(-c2ccnc(Nc3ccc(N4CCOCC4)cc3)n2)cc1)C1CCCN1 (configuration not stated) ; TGI = 28.3

----------
Provide the recorded TGI for the entries that follow.
Tested on: HOP-92 NSCLC
method.description: NCI tumour cell line growth inhibition, 48 h

Previously resolved entries follow.
| compound | system | readout.name | result |
| --- | --- | --- | --- |
| Oc1ccc2ccccc2c1OCc1nnc(CCCCCCCCc2nnc(COc3c(O)ccc4ccccc34)o2)o1 | HOP-92 NSCLC | TGI | > 100 µM |
| CC1OC=CC(=O)C1O (stereo unspecified) | HOP-92 NSCLC | TGI | > 100 µM |
| Cc1ccc([N+](=O)[O-])cc1NC(=O)C(=O)C1CCC2=C(Sc3ccccc3N2)C1=O (stereo unspecified) | HOP-92 NSCLC | TGI | > 100 µM |

Dear colleague, could you please provide TGI for the compounds listed below?
1. c1ccc2c(c1)c1c3n2-c2cc(on2)C3CCC1 (stereo unspecified)
2. COc1cc(N=Nc2cccc(S(N)(=O)=O)c2)c2ccccc2c1N
3. C#CCOc1cccc(Nc2ncc3ncn(C4CCN(C(=O)CCl)C4)c3n2)c1 (stereo unspecified)

Data returned:
["> 100 µM", "> 58 µM", "> 62.5 µM"]
